Hello, the source for this data is patent US20130137865A1, in case you need it.

Recorded IC50, one value per entry.
target: human mGlu2 receptor (Homo sapiens); experiment: [35S]GTPγS binding test (2), membranes of CHO cells stably expressing human mGlu2; conditions: inhibition of glutamic acid (20 μM)-stimulated specific [35S]GTPγS binding
Numeric answer only, unit nM assumed.

Example cases with answers are listed next.
Cn1ncc(-c2nc(-c3cncc(S(N)(=O)=O)c3)no2)c1COc1ccc(C(F)(F)F)cn1 [Example 224]	3.64
Cn1ncc(-c2nc(-c3cccc(N)c3)no2)c1COc1ccc(C(F)(F)F)cn1 [Example 220]	32.2
CC(=O)Nc1cc(-c2noc(-c3cnn(C)c3COc3ccc(C(F)(F)F)cn3)n2)ccn1 [Example 217]	14.9

Read the next record carefully.
Problem: I have this molecule here, CC(=O)Nc1cc(-c2noc(-c3cnn(C)c3COc3ccc(C(F)(F)F)cc3)n2)ccn1 [Example 208] , and I need its recorded IC50.
Result: 29.1

---

target: human mGlu2 receptor (Homo sapiens, UniProt Q14416); experiment: [35S]GTPγS binding test (2), membranes of CHO cells stably expressing human mGlu2; conditions: inhibition of glutamic acid (20 μM)-stimulated specific [35S]GTPγS binding
Sequence (Q14416 19-872): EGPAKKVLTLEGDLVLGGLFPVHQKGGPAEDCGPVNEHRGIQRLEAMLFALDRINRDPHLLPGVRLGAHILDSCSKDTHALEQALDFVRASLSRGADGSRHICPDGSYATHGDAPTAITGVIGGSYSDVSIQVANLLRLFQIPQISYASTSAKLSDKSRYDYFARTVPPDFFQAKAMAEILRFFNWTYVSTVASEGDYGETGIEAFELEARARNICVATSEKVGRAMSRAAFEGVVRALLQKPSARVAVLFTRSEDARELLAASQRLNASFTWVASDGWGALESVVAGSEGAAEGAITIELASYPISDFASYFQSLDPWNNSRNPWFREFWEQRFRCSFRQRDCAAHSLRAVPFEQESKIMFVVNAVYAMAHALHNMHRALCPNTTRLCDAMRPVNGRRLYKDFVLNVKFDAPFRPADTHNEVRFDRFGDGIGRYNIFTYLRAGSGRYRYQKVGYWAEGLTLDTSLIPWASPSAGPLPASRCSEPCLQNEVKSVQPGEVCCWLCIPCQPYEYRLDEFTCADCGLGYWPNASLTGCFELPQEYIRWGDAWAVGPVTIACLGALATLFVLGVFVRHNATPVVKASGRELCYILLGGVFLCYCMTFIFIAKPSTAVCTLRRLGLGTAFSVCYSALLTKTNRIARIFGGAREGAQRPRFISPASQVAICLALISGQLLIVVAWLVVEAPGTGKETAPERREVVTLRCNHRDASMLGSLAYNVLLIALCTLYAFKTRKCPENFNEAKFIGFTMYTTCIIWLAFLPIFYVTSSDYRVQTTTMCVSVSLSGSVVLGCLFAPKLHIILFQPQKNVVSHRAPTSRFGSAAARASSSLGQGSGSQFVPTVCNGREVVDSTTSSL
pIC50: −log10 of the molar value.
Think of 8 as a floor: if pIC50 stands on it or above, it is 1 (yes); beneath it, 0 (no).

Solved cases below.
Cn1ncc(-c2nnc(-c3cccc(S(N)(=O)=O)c3)o2)c1COc1ccc(C(F)(F)F)cn1	0 (no)
Cn1ncc(-c2nnc(-c3ccc(S(N)(=O)=O)cc3)o2)c1COc1ccc(C(F)(F)F)cc1	0 (no)
Cn1ncc(-c2cc(-c3cccc(S(N)(=O)=O)c3)on2)c1COc1ccc(F)cn1	0 (no)
Cn1ncc(-c2nc(-c3ccc(N)nc3)no2)c1COc1ccc(C(F)(F)F)cc1	0 (no)
Cn1ncc(-c2nc(-c3cccc(S(N)(=O)=O)c3)no2)c1COc1ccccn1	0 (no)

Problem: In plain terms: is recorded pIC50 at least 8 for Cn1ncc(-c2nc(-c3ccc(S(C)(=O)=O)cc3)no2)c1COc1ccc(C(F)(F)F)cn1 ?
Result: 0 (no)

Problem: Next compound up: Cn1ncc(-c2nc(-c3cccc(S(C)(=O)=O)c3)no2)c1COc1ccc(C(F)(F)F)cn1
Result: 1 (yes)

Problem: Next compound up: Cn1ncc(-c2nc(-c3cc[nH]c(=O)c3)no2)c1COc1ccc(C(F)(F)F)cn1
Result: 0 (no)

Problem: Next compound up: Cn1ncc(-c2nc(-c3cnc(N)nc3)no2)c1COc1ccc(C(F)(F)F)cn1
Result: 0 (no)

Problem: Next compound up: Cn1ncc(-c2coc(-c3cccc(S(N)(=O)=O)c3)n2)c1COc1ccc(C(F)(F)F)cc1
Result: 1 (yes)

---

biological target: human mGlu2 receptor (Homo sapiens, UniProt Q14416); assay: [35S]GTPγS binding test (2), membranes of CHO cells stably expressing human mGlu2; details: inhibition of glutamic acid (20 μM)-stimulated specific [35S]GTPγS binding
pIC50: −log10 of the molar value.
Think of 8 as a floor: if pIC50 stands on it or above, it is condition met; beneath it, condition not met.

Cn1ncc(-c2nc(-c3cccc(S(N)(=O)=O)c3)no2)c1COc1ccc(C(F)(F)F)cn1	condition met

Problem: In plain terms: is recorded pIC50 at least 8 for CNCCNS(=O)(=O)c1cccc(-c2noc(-c3cnn(C)c3COc3ccc(F)cn3)n2)c1 ?
Result: condition not met

Problem: Next compound up: Cn1nc(-c2cccc(S(N)(=O)=O)c2)nc1-c1cnn(C)c1COc1ccc(C(F)(F)F)cc1
Result: condition not met

Problem: Next compound up: Cn1ncc(-c2nc(-c3cccc(S(N)(=O)=O)c3)no2)c1COc1ncc(F)cc1Br
Result: condition not met
